- target-system: 5-HT2C receptor (Sus scrofa, UniProt K7GSR7)
- Construct: the tissue used is the choroid plexus of the pig; from tissue; host or cells: pig choroid plexus
- Sequence (K7GSR7 1-457): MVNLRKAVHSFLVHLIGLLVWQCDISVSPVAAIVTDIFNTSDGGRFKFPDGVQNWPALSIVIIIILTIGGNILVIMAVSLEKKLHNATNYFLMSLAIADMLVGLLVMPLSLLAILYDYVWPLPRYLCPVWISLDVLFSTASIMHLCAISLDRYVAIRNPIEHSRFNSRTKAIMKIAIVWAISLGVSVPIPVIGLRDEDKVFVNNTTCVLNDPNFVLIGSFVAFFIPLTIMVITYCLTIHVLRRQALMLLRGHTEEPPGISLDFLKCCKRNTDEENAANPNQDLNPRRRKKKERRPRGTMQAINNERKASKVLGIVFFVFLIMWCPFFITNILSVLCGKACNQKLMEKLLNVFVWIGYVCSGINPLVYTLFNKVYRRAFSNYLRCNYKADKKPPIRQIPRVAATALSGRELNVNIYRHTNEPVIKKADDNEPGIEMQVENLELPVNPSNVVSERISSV
- test-protocol: In vitro radioligand binding affinity for 5-HT2C receptor (3H-mesulergine, choroid plexus)
- conditions-used: test concentration of 10^-7 M, choroid plexus of the pig
Counter-ions that a name gives are not always drawn.
So I've got a bunch of compounds here, and I need their inhibition at 0.1 µM values.

Exam item: Query the reported inhibition at 0.1 µM for 5-HT2C receptor (Sus scrofa, UniProt K7GSR7); item: c1ccc(C2CCN(CC3CC4c5ccccc5Cc5ccccc5C4O3)CC2)cc1 (centres unmarked)
Marked response: > 40%

Exam item: Query the reported inhibition at 0.1 µM for 5-HT2C receptor (Sus scrofa, UniProt K7GSR7); item: O=C(c1ccc(F)cc1)C1CCN(CC2CC3c4ccccc4Cc4ccccc4C3O2)CC1 (centres unmarked)
Marked response: > 40%

Exam item: Query the reported inhibition at 0.1 µM for 5-HT2C receptor (Sus scrofa, UniProt K7GSR7); item: OCCN1CCN(CC2CC3c4ccccc4Cc4ccccc4C3O2)CC1 (racemic) [Compound 3, dihydrochloride]
Marked response: > 40%

Exam item: Query the reported inhibition at 0.1 µM for 5-HT2C receptor (Sus scrofa, UniProt K7GSR7); item: CN1CCN(CC2CC3c4ccccc4Cc4ccccc4C3O2)CC1 (centres unmarked)
Marked response: > 40%

Exam item: Query the reported inhibition at 0.1 µM for 5-HT2C receptor (Sus scrofa, UniProt K7GSR7); item: CN(C)CC1CC2c3ccccc3Oc3ccccc3C2O1 (racemic)
Marked response: > 40%

Exam item: Query the reported inhibition at 0.1 µM for 5-HT2C receptor (Sus scrofa, UniProt K7GSR7); item: Clc1cccc(N2CCN(CC3CC4c5ccccc5Cc5ccccc5C4O3)CC2)c1 (centres unmarked)
Marked response: > 40%

Exam item: Query the reported inhibition at 0.1 µM for 5-HT2C receptor (Sus scrofa, UniProt K7GSR7); item: c1ccc2c(c1)Cc1ccccc1C1OC(CN3CCOCC3)CC21 (centres unmarked)
Marked response: > 40%

Exam item: Query the reported inhibition at 0.1 µM for 5-HT2C receptor (Sus scrofa, UniProt K7GSR7); item: CN(C)CC1CC2c3ccccc3Cc3ccccc3C2O1.Cl (racemic)
Marked response: > 40%
